Target: p-Akt1 in LNCaP cells (Homo sapiens)
Construct: SureFire assays to detect cellular p-Akt1, p-Akt2 and p-Akt3 levels in WM115 cells (Akt2/3) and LNCaP cells (Akt1); endogenous in cells; host or cells: LNCaP (ECACC 89110211)
Sequence (P31749 whole entry): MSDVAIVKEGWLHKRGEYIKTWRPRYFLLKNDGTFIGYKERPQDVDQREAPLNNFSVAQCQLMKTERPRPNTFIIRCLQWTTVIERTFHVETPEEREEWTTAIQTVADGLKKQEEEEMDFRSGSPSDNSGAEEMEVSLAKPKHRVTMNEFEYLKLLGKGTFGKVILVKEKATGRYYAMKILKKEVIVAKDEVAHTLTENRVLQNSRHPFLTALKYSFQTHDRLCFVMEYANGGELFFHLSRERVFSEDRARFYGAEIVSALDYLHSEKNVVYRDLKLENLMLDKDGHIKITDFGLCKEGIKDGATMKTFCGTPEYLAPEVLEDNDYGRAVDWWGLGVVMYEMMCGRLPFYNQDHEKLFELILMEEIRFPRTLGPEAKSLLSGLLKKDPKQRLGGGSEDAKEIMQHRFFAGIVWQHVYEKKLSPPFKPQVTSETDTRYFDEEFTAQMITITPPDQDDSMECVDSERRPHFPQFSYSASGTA
Assay: Phospho-Akt cellular SureFire assay, p-Akt1 in LNCaP cells
Assay type: cell-based
Conditions: read-out: Biological Assay 2 IC50 (nM) Akt1 LNCaP
reported_property: IC50 (nM)

a = CCC(=O)N(C)[C@H]1CC[C@H](CC(=O)Nc2cnc(-c3ccc([C@]4(N)C[C@](C)(O)C4)cc3)c(-c3ccccc3)c2)CC1
b = CC(=O)N(C)[C@H]1CC[C@H](CC(=O)Nc2cc(-c3ccccc3)c(-c3ccc([C@]4(N)C[C@](C)(O)C4)cc3)nn2)CC1
IN: Between these two entries, a and b , state which has the higher IC50. Please respond with the label that marks your chosen entry.
OUT: b
(b: 5300 nM, a: 880 nM)

----------
Target: Akt3 (Homo sapiens, UniProt Q9Y243)
Construct: unspecified tag, removed (detagged) (cleaved yes); purchased SignalChem and Proteros (Akt3); Merck Millipore (PDK1) 14-452 (PDK1); none given for Akt3
Sequence (Q9Y243 whole entry): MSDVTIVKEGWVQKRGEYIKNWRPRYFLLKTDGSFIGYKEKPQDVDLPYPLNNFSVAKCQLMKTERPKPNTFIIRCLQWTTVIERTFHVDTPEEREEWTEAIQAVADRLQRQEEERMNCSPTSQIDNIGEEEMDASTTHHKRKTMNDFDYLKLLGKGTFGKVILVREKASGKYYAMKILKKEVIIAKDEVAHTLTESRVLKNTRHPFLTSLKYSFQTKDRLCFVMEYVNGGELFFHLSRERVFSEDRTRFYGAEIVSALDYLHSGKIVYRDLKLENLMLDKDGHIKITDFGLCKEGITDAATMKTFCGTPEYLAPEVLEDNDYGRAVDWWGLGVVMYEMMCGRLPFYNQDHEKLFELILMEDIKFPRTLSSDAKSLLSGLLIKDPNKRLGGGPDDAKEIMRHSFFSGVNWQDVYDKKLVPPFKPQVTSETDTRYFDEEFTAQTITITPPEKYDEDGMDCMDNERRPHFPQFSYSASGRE
Assay: Akt activation assay (PDK1-mediated activation, LANCE Ultra crosstide TR-FRET), Akt3
Format: biochemical
Conditions: read-out: Biological Assay 1 IC50 (nM) Akt3
Method: Biological Assay 1: Akt Activation Assay Addition of a Europium-labelled antibody specific to the phosphopeptide allows energy transfer from the Europium donor to the Ultra Ulight™ acceptor if close enough in proximity. […] 5 μL enzyme in 1×AB was incubated with 2.5 μL test compound. […] Plates read with the EnVision® Multilabel Plate Reader, excitation at 320 nm and emission at 665 nm and 615 nm. Compound IC50 was determined using a 4-parameter equation.
reported_property: IC50 (nM)

Below, 4 molecules whose answers are already recorded.
INSERT INTO measurements (molecule, reported_property, result_value) VALUES
  ('CC(C)(N)c1ccc(-c2ncc(NC(=O)C[C@H]3CC[C@H](NC(=O)CC4CC4)CC3)cc2-c2ccccc2)cc1 [Example 29]', 'IC50', 53),
  ('CC(C)(N)c1ccc(-c2ncc(NC(=O)C[C@H]3CC[C@H](NC(=O)C4CC4)CC3)cc2-c2ccsc2)cc1 [Example 26]', 'IC50', 1600),
  ('CCC(=O)N(C)[C@H]1CC[C@H](CC(=O)Nc2cc(-c3ccsc3)c(-c3ccc([C@]4(N)C[C@](C)(O)C4)cc3)nn2)CC1 [Example 91]', 'IC50', 5),
  ('COC(=O)N(C(C)C)[C@H]1CC[C@H](CC(=O)Nc2cc(-c3ccccc3)c(-c3ccc([C@]4(N)C[C@](C)(O)C4)cc3)nn2)CC1 [Example 101]', 'IC50', 7);

1 = COC(=O)N(C)[C@H]1CC[C@H](CC(=O)Nc2cnc(-c3ccc(C4(N)CCC4)cc3)c(-c3ccsc3)c2)CC1 [Example A68]
2 = CN(C(=O)C1CCC1)[C@H]1CC[C@H](CC(=O)Nc2cc(-c3ccccc3)c(-c3ccc(C(C)(C)N)cc3)nn2)CC1 [Example A87]
IN: Between these two entries, 1 and 2 , state which has the higher IC50. Please respond with the label that marks your chosen entry.
OUT: 2
(2: 99 nM, 1: 40 nM)
